B1: PTPRD (parent)
chain: LTKLREMGREKCHQYWPAERSARY

Variants of: B1
Test: protein stability index of a GFP-peptide fusion (GPS, HEK-293T) (PSI 1-6); higher = more stable;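 note: lentivirally expressed fusions sorted by FACS into six bins by GFP to DsRed ratio, PSI derived from sequencing read proportions per bin multiplied by bin number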
Settings: c terminus: a fixed tail appended
QUANTITY MEASURED: protein stability index
// no unit, no text: just the number

Look over these answered cases.
{"BIOSEQUENCE": "LCKLREMGREKCHQYWPAERSARY [T2C]", "protein stability index": 1.82}
{"BIOSEQUENCE": "LTKLREMGREKCFQYWPAERSARY [H13F]", "protein stability index": 2.15}
{"BIOSEQUENCE": "LTTLREMGREKCHQYWPAERSARY [K3T]", "protein stability index": 2.63}

Answer with the recorded protein stability index of LSKLREMGREKCHQYWPAERSARY [T2S] only.
2.16

Determine its reported protein stability index: LTKLREMGREKCHQYWIAERSARY [P17I]
2.25

Source of measurements: the supplement of paper PMC10567573
